tested-system: BsCspB (cold shock protein B) (UniProt P32081 1-67)
Sequence (P32081 whole entry): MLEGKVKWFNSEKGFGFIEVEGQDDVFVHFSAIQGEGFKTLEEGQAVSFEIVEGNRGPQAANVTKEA
experiment-summary: intrinsic Trp fluorescence quenching; 300 g/L PEG1 (series a); 20 mM disodium phosphate pH 7.0, no added salt stated; fluorescence titration 298 K (0.5, 2.8 or 4 uM protein; table marks a/b not explained in the material); stopped-flow 288 K (60 or 300 nM protein); NMR 298 or 294.4 K with 5% D2O
condition: protein: recombinant; single strand
Would you mind telling me the reported pKd of each entry?
Give bare numbers, as −log10 of the molar value.

> print(dat)
                  binder  measurement.kind  reported.measurement
1  TTTTTTT (ssDNA) [dT7]               pKd                  6.77

Value of measured pKd for the entry TTTTTT (ssDNA) [dT6] : 6.38
